# assay remarks: Mouse oral pharmacokinetics, plasma and myocardium
# Type: in vivo, male BALB/c mice
# applied conditions: male, BALB/c, 10 mg/kg oral gavage, plasma, read-out: AUC 0-24, plasma
# Method: Absorption, distribution and metabolic stability were studied using an in vivo pharmacokinetics assay. Drug levels were assessed using LC/MS-MS. Healthy male BALB/c mice (8-12 weeks old) weighing between 25 and 35 g, or Sprague-Dawley rats weighing between 250 and 300 g were procured from In-vivo Bioscience Bangalore, India. Three mice were housed in each cage. […] Temperature and humidity were recorded by auto-controlled data logger system. […]
For each entry below, report its AUC(0-t) value.
Numbers only, in ng·h/mL.

>>> print(df.to_string())
                                   compound  value_kind  quantity_unit  readout_value
0  FC1(F)CCC(C(CC2CCCCN2)C2CCCCC2)CC1 (mixture of isomers)    AUC(0-t)        ng·h/mL           3730

Now let's try a different one.
Could you tell me which AUC(0-t) is on file for C1CCC(C(CC2CCCCN2)C2CCCCC2)CC1 (centres unmarked) ?
350

----------
# assay remarks: Rat oral pharmacokinetics, plasma and myocardium
# Format: in vivo, male Sprague-Dawley rats
# applied conditions: male, Sprague-Dawley, 10 mg/kg oral, myocardium, 8 h, read-out: Conc., myocardium, 8 h
value kind: concentration at 8 h

>>> print(df.to_string())
                                   compound            value_kind  readout_value
0  C1CCC(C(CC2CCCCN2)C2CCCCC2)CC1 (centres unmarked) [Perhexiline, 2-(2,2-dicyclohexylethyl)piperidine]  concentration at 8 h      361 ng/mL

Now let's try a different one.
Could you tell me which concentration at 8 h is on file for FC1(F)CCC(C(CC2CCCCN2)C2CCCCC2)CC1 (mixture of isomers) [FPER-001] ?
1290 ng/mL

----------
# assay remarks: Rat liver microsomal (RLM) stability assay
# Type: in vitro ADME
# applied conditions: both sexes, pH 7.4; rat liver microsomes, 3 μM test compound; read-out: T½ (min) RLM
For each entry below, report its half-life at 3 μM value.
Give bare numbers, in min.

Your task in this section: give half-life at 3 μM for each listed record.
1. C1CCC(C(CC2CCCCN2)C2CCCCC2)CC1 (stereo not shown) [Perhexiline, 2-(2,2-dicyclohexylethyl)piperidine]
2. FC1(F)CCC(C(CC2CCCCN2)C2CCCCC2)CC1 (mixture of isomers) [FPER-001]
3. FC1CCC(C(CC2CCCCN2)C2CCCCC2)CC1 (mixture of isomers) [FPER-003]
4. FC1(F)CCC(C(CC2CCCCN2)C2CCC(F)(F)CC2)CC1 (stereo not shown) [FPER-002]

1. 21
2. 72
3. 11
4. 1650

----------
For each entry below, report its Cmax value.
# assay remarks: Mouse oral pharmacokinetics, plasma and myocardium
# Type: in vivo, male BALB/c mice
# applied conditions: male, BALB/c, 10 mg/kg oral gavage, myocardium, read-out: Cmax, myocardium
Give bare numbers, in ng/mL.

In [3]: df
Out[3]:
                                   compound  value_kind  quantity_unit  readout_value
0  FC1(F)CCC(C(CC2CCCCN2)C2CCCCC2)CC1 (mixture of isomers)        Cmax          ng/mL           1680

Now let's try a different one.
Could you tell me which Cmax is on file for C1CCC(C(CC2CCCCN2)C2CCCCC2)CC1 (centres unmarked) ?
665
